Test system: HCC-2998 colon
Assay: NCI tumour cell line growth inhibition, 48 h
For each record, write down the corresponding TGI.

Q) Requested read-out: TGI. Entry: "O=c1c2ccccc2ncn1COCc1ccccc1"
A) > 100 µM

Q) I'd like to know its TGI. The compound in question is CO/S(=N/S(=O)(=O)c1ccccc1)c1ccccc1[N+](=O)[O-] (stereo not drawn)
A) > 100 µM

Q) Return reported TGI; argument: "COc1ccc(C2=NN(C(C)=O)c3nc4ccccc4nc3O2)cc1"
A) > 100 µM

###

Assign TGI to each entry below.
Tested on: SK-MEL-5 melanoma
Assay: NCI tumour cell line growth inhibition, 48 h

Q) Query for SK-MEL-5 melanoma: what TGI does the record show for CC[C@@]1(O)C(=O)OCc2c1cc1n(c2=O)Cc2c-1nc1ccccc1c2/C=N\NC(=O)C(N)Cc1ccc(O)cc1 (stereo partly specified) ?
A) 2.7 µM

Q) What measured TGI is associated with "COc1nc2c(c(=O)n1C)CN(c1ccccc1)C(=O)CN2C" on SK-MEL-5 melanoma?
A) > 100 µM

Q) Recall the recorded TGI for "O=c1oc2ccc(F)cc2c(=O)n1-c1ccc(I)cc1F" with SK-MEL-5 melanoma and state it.
A) 0.521 µM

Q) Test system SK-MEL-5 melanoma; read-out TGI; what value for "Oc1ccc(O)c(-n2cccn2)c1" ?
A) > 100 µM

Q) What TGI appears in the records for this compound with SK-MEL-5 melanoma? [N-]=[N+]=C1C(=O)C2CC3CC1CC2C3 (stereo unspecified)
A) > 100 µM

Q) TGI of O=C(O)C(Cc1ccccc1)N=Cc1nc(-c2ccccc2)oc1O (stereo unspecified) on SK-MEL-5 melanoma?
A) > 100 µM
